From: patent US20240425593A1

target_system: T1, human PD-1-hFc (human, UniProt Q15116 25-170)
T1 construct: extracellular domain; Extracellular domain of human PD-1 fused to an hFc tag, made in house; not shown: hFc tag
T1 sequence (Q15116 25-170): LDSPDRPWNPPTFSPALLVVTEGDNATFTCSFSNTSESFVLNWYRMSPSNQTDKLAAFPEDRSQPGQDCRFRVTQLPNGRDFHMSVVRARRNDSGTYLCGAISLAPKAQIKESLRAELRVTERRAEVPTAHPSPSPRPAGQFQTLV
assay_comment: competitive ELISA, coated PD-1-hFc, competitor PDL2-mFc
test_readout: IC50 (nM)
Unit nM implied. Number only.

Short answer for chimeric antibody 29C6-CH (antibody, human IgG4 S228P, kappa, V domains shown, Murine 29C6 variable regions fused to the IgG4 (S228P) heavy chain constant region and the human kappa constant region) VH: QVQLEESGPELVKPGASVKISCKTSGYTFTEYTIYWVKQSHGKSLEWIGGINPKNGATLYNQKFKVKATLTVDKSSSTAYMELRSLTSEDSAVYYCVRDYHGNSHDSMDYWGQGTSVTVSS VL: QIVLTQSPAIMSASPGEKVTITCSASSSVSYMHWFRQKPGTSPKLWIYYTSNLASGVPAHFSGSGSGTSYSLTISRMEAEDAATYYCQQRSDYPPTFGGGTKLEIKR : IC50 was 1.31
